Origin of values: ChEMBL document CHEMBL1153207

# test-protocol: Metabolic stability in human liver microsomes at 2 uM
# Assay type: ADME, Microsome
# stated-conditions: read-out: Stability
property-label: remaining at 2 µM (%)

molecule | remaining at 2 µM, %
CC(C)c1nnc2cc(Cl)c(Sc3ccc(F)cc3F)cn12 | 71
CC(C)c1nnc2ccc(Sc3ccc(F)cc3F)c(Cl)n12 | 65
CC(C)c1nnc2ccc([S+]([O-])c3ccc(F)cc3F)cn12 (stereo not drawn) | 100

I: CC(C)c1nnc2ccc(Sc3ccc(F)cc3F)cn12
II: CC(C)c1nnc2ccc(CCc3ccc(F)cc3F)cn12
III: CC(C)c1nnc2cc(Cl)c(Sc3ccc(F)cc3F)c(Br)n12
Please list these in order of increasing remaining at 2 µM. Thank you! Submit the labels in the order that the ranking request calls for.
III, II, I
(III: 24%, II: 53%, I: 89%)

A: CC(C)c1nnc2cc(Cl)c(Sc3ccc(F)cc3F)c(Cl)n12
B: CC(C)c1nnc2ccc(C(=O)c3ccc(F)cc3F)cn12
Which value of remaining at 2 µM is greater, the one for A or the one for B ? Lab note: record the label of whichever item you select.
B

###

# system-under-test: Mitogen-activated protein kinase 14 (Homo sapiens)
# Sequence (Q16539 whole entry): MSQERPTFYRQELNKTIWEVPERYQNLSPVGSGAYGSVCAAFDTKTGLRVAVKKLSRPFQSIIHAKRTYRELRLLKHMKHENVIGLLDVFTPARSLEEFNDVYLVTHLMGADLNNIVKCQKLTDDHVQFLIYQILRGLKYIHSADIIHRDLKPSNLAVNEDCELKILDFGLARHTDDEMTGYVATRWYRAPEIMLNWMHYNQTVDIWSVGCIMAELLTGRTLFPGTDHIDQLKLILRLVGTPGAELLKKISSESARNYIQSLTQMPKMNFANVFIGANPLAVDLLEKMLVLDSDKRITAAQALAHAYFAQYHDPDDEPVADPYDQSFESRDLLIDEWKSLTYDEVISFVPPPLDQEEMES
# test-protocol: Inhibition of p38 alpha
property-label: IC50 (nM)

Would you please look over these solved cases?
entry-smiles | test-value
CC(C)c1nnc2ccc(CCc3ccc(F)cc3F)cn12 | 85
CC(C)c1nnc2ccc(C(=O)c3ccc(F)cc3F)cn12 | 1050
O=C(O)c1ccc(-c2nnc3ccc(Sc4ccc(F)cc4F)cn23)cc1 | 1170
COC(=O)c1ccc(-c2nnc3ccc(Sc4ccc(F)cc4F)cn23)cc1 | 322
Fc1ccc(Sc2ccc3nnc(C4CCNCC4)n3c2)c(F)c1 | 3770
CC(C)c1nnc2ccc(C(=O)Cc3cc(F)cc(F)c3)cn12 | 7370

P: CC(C)c1nnc2ccc(Sc3ccc(Cl)cc3Cl)cn12
Q: Fc1ccc(Sc2ccc3nnc(-c4ccc(F)cc4F)n3c2)c(F)c1
Which value of IC50 is greater, the one for P or the one for Q ? Lab note: record the label of whichever item you select.
P
(P: 8240 nM, Q: 7.2 nM)
